Origin of measurements: patent US11873291B2

Target: recombinant human cGAS (aa147-522) (Homo sapiens)
Construct: recombinant human cGAS (aa147-522); His6-SUMO (cleaved yes); made in house; host or cells: E. coli BL21/pLys
Assay: In vitro inhibition assay of cGAS activity (ATP consumption, KinaseGlo Max)
Format: biochemical
Settings: Table 3, read-out: cGAS Inhibition Results IC50
MEASURED METRIC: IC50

Lab book: IC50 of O=C(O)CCOCCOc1cc(-n2ccnc2)c2ccc(Cl)c(Cl)c2n1 noted as 2000 to 30000 nM

compound O=C(O)CCCCCNc1cc(-n2ccnc2)c2ccc(Cl)c(Cl)c2n1 , IC50 observed: < 2000 nM

Short answer for COC(=O)c1ccc(S(=O)(=O)NCCN(C)c2cc(-n3ccnc3)c3ccc(Cl)c(Cl)c3n2)cc1 : IC50 was > 30000 nM

IC50 measured on O=C(O)c1ccc(OC[C@@H]2CCCN2c2cc(-n3ccnc3)c3ccc(Cl)c(Cl)c3n2)cc1 = < 2000 nM

Looking up COC(=O)[C@@H]1[C@H](F)CCN1c1cc(-n2ccnc2)c2ccc(Cl)c(Cl)c2n1 , I see its IC50 listed as 2000 to 30000 nM

Item: O=C(O)c1ccn(CC[C@@H]2CCCN2c2cc(-n3ccnc3)c3ccc(Cl)c(Cl)c3n2)n1 | IC50: < 2000 nM

The recorded IC50 for entry CC(C)COC(=O)[C@@H]1[C@@H](O)CCN1c1cc(-n2ccnc2)c2ccc(Cl)c(Cl)c2n1 equals 2000 to 30000 nM

# IC50 of COC(=O)[C@@H]1CC2C[C@@H]2N1c1cc(-n2ccnc2)c2ccc(Cl)c(Cl)c2n1 (some centres unmarked) = < 2000 nM

Input COC(=O)[C@H]1CCCN1C(=O)C[C@@H]1CCCN1c1cc(-n2ccnc2)c2ccc(Cl)c(Cl)c2n1 . Output IC50: 2000 to 30000 nM

Briefly, IC50 measured for Cn1cc(-c2cc(N3CCC[C@H]3COCCC(=O)O)nc3c(Cl)c(Cl)ccc23)cn1 : > 30000 nM

Measured IC50, O=C(O)CCOC[C@@H]1CCCN1c1ccc2ccc(Cl)c(Cl)c2n1 : > 30000 nM

Documented IC50 of COC(=O)[C@@H]1Cc2ccccc2N1c1cc(-n2ccnc2)c2ccc(Cl)c(Cl)c2n1 : 2000 to 30000 nM

IC50 reading for O=C(O)CCOC[C@H]1CCCN(c2cc(-n3ccnc3)c3ccc(Cl)c(Cl)c3n2)C1 : < 2000 nM

Item: COC(=O)[C@@H]1C[C@H](OCCC(=O)O)CN1c1cc(-n2ccnc2)c2ccc(Cl)c(Cl)c2n1 | IC50: 2000 to 30000 nM

O=P(O)(O)CCOC[C@@H]1CCCN1c1cc(-n2ccnc2)c2ccc(Cl)c(Cl)c2n1 has a reported IC50 of < 2000 nM

IC50 measured on O=C(O)CCCCOC[C@@H]1CCCN1c1cc(-n2ccnc2)c2ccc(Cl)c(Cl)c2n1 = < 2000 nM

Input CC1(C)CCN(c2cc(-n3ccnc3)c3ccc(Cl)c(Cl)c3n2)C1C(=O)O (centres unmarked) . Output IC50: 2000 to 30000 nM

---

Molecular target: recombinant human cGAS (aa147-522) (Homo sapiens, UniProt Q8N884)
Construct: recombinant human cGAS (aa147-522); His6-SUMO (cleaved yes); made in house; host or cells: E. coli BL21/pLys
Sequence (Q8N884 147-522): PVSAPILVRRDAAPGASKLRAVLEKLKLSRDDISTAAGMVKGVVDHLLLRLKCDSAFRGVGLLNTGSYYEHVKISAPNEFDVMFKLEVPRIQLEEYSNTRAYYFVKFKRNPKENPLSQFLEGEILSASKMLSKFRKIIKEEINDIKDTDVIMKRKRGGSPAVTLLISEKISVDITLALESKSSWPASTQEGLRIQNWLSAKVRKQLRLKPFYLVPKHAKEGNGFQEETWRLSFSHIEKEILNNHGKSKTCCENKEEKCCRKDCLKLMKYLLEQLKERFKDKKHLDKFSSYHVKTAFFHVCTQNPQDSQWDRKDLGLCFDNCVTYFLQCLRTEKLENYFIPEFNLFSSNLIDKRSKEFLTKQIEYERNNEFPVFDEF
Assay: In vitro inhibition assay of cGAS activity (ATP consumption, KinaseGlo Max)
Assay type: biochemical
Conditions: Table 3, read-out: cGAS Inhibition Results IC50
pIC50: −log10 of the molar value.
Assignment: determine reported pIC50 for the given compounds.

The compound O=C(O)COC[C@@H]1CCCN(c2cc(-n3ccnc3)c3ccc(Cl)c(Cl)c3n2)C1 showed pIC50 equal to > 5.70

Value of measured pIC50 for the entry O=C(O)CCOC[C@@H]1C[C@H](F)CN1c1cc(-n2ccnc2)c2ccc(Cl)c(Cl)c2n1 : > 5.70

Lab note: CN(CCS(=O)(=O)N1CCCCC1C(=O)O)c1cc(-n2ccnc2)c2ccc(Cl)c(Cl)c2n1 (stereo not shown) gave pIC50 of > 5.70

The compound listed as O[C@@H]([C@@H]1CCCN1c1cc(-n2ccnc2)c2ccc(Cl)c(Cl)c2n1)C(F)(F)F shows pIC50 equal to > 5.70

Sure, the documented pIC50 for COc1ccc(-c2cc(-n3ccnc3)c3ccc(Cl)c(Cl)c3n2)cc1COCCC(=O)O is > 5.70

Consider O=C(O)COCC[C@@H]1CCCN1c1cc(-n2ccnc2)c2ccc(Cl)c(Cl)c2n1 . Its measured pIC50 is > 5.70

// field: pIC50; key: O=C(O)CO[C@H]1CCN(c2cc(-n3ccnc3)c3ccc(Cl)c(Cl)c3n2)C1 ; value = > 5.70

GET /value?item= C[C@@]1(COCCC(=O)O)CCCN1c1cc(-n2ccnc2)c2ccc(Cl)c(Cl)c2n1 &field=pIC50 returns > 5.70

Documented pIC50 of COC(=O)CCNC(=O)[C@@H]1[C@@H](O)CCN1c1cc(-n2ccnc2)c2ccc(Cl)c(Cl)c2n1 : 4.52 to 5.70

Record summary for O=C(O)CCOCCN(CCO)c1cc(-n2ccnc2)c2ccc(Cl)c(Cl)c2n1 : reported pIC50 = > 5.70

pIC50 for O=C1CC2CCC(C1)N2c1cc(-n2ccnc2)c2ccc(Cl)c(Cl)c2n1 is > 5.70

So, COC(=O)[C@@H]1CCCN1c1cc(-n2ccnc2)c2ccc(Cl)c(Cl)c2n1 ? Its pIC50 was 4.52 to 5.70

OC([C@@H]1CCCN1c1cc(-n2ccnc2)c2ccc(Cl)c(Cl)c2n1)(C(F)(F)F)C(F)(F)F yielded pIC50 of < 4.52

So for O=C(C[C@@H]1CCCN1c1cc(-n2ccnc2)c2ccc(Cl)c(Cl)c2n1)NC1CCCNC1=O (stereo partly shown) , the logged pIC50 turned out to be 4.52 to 5.70

Query O=C(O)CCOCc1ccc(Cl)c(-c2cc(-n3ccnc3)c3ccc(Cl)c(Cl)c3n2)c1 yields pIC50 of > 5.70

So for O=C(O)CCOC[C@@H]1CCCN1c1cc(-c2ccoc2)c2ccc(Cl)c(Cl)c2n1 , the logged pIC50 turned out to be < 4.52

Entry under test: O=C(O)CCO[C@H]([C@@H]1CCCN1c1cc(-n2ccnc2)c2ccc(Cl)c(Cl)c2n1)C(F)(F)F . Its pIC50 was 4.52 to 5.70

Please fill in: pIC50 reported for O=C(O)c1ccccc1OC[C@@H]1CCCN1c1cc(-n2ccnc2)c2ccc(Cl)c(Cl)c2n1 = > 5.70

In plain terms, O=C(O)c1noc(CCNc2cc(-n3ccnc3)c3ccc(Cl)c(Cl)c3n2)n1 has a documented pIC50 of > 5.70

# compound O=C1C[C@@H]2[C@@H](CCN2c2cc(-n3ccnc3)c3ccc(Cl)c(Cl)c3n2)O1 ; its pIC50 = > 5.70

pIC50 recorded for this compound, O=C(O)CCCCCCNc1cc(-n2ccnc2)c2ccc(Cl)c(Cl)c2n1 , is > 5.70

pIC50 in this record for C[C@H]1CC[C@@H](COCCC(=O)O)N1c1cc(-n2ccnc2)c2ccc(Cl)c(Cl)c2n1 : > 5.70

Please fill in: pIC50 reported for CN(CCS(=O)(=O)NC1CCC(C(=O)O)C1)c1cc(-n2ccnc2)c2ccc(Cl)c(Cl)c2n1 (stereo not shown) = > 5.70

So, O=C(O)CCCCNc1cc(-n2ccnc2)c2ccc(Cl)c(Cl)c2n1 ? Its pIC50 was > 5.70

The reported value for O=C(O)c1cccc(S(=O)(=O)NC[C@@H]2CCCN2c2cc(-n3ccnc3)c3ccc(Cl)c(Cl)c3n2)c1 in terms of pIC50 is 4.52 to 5.70

Reported pIC50 for O=C(O)CCOCC1CC2CCC1N2c1cc(-n2ccnc2)c2ccc(Cl)c(Cl)c2n1 (stereo not shown) was > 5.70

pIC50 for O=C(O)[C@@H]1[C@@H](F)CCN1c1cc(-n2ccnc2)c2ccc(Cl)c(Cl)c2n1 is > 5.70

The value of pIC50 measured for the compound O=C(O)c1ccc(C2CCCN2c2cc(-n3ccnc3)c3ccc(Cl)c(Cl)c3n2)s1 (stereo not shown) turned out to be 4.52 to 5.70

// sample O=C(O)CCOC[C@@H]1CCCN1c1cc(-n2ccnc2)c2ccc(Cl)c(-c3ccccc3)c2n1 , its pIC50 was < 4.52

pIC50 reading for CN(CCS(=O)(=O)NCCO)c1cc(-n2ccnc2)c2ccc(Cl)c(Cl)c2n1 : > 5.70

Looking up O=c1nc([C@@H]2CCCN2c2cc(-n3ccnc3)c3ccc(Cl)c(Cl)c3n2)o[nH]1 , I see its pIC50 listed as < 4.52

# compound O=C(O)[C@@H]1[C@H]2CC[C@H](C2)N1c1cc(-n2ccnc2)c2ccc(Cl)c(Cl)c2n1 ; its pIC50 = > 5.70

// sample CN(CCNC(=O)c1cccc(O)c1)c1cc(-n2ccnc2)c2ccc(Cl)c(Cl)c2n1 , its pIC50 was 4.52 to 5.70

Field pIC50 (entry CN(CCNS(=O)(=O)c1cccc(C(=O)O)c1)c1cc(-n2ccnc2)c2ccc(Cl)c(Cl)c2n1 ) reads 4.52 to 5.70
